Type: in vivo, human
Details: human, plasma, po, 100 mg, Cmax, geometric mean (geometric CV, %), 100 mg oral tablet, single dose, fasted
PROPERTY NAME: Cmax

Field Cmax (entry CN1CC[C@@H](NC(=O)Nc2ccc(C#N)cc2)C[C@@H]1c1nc2ccccc2[nH]1 [Glasdegib] ) reads 668 ng/mL

====

Format: in vivo, human
Conditions: human, plasma, oral, Absolute oral bioavailability, arithmetic mean ± SD, arithmetic mean ratios, without logarithmic transformation, of AUC0‐∞(dn) oral to IV
PROPERTY NAME: bioavailability (%)
// units = %; emit number, no label

Per the record, CN1CC[C@@H](NC(=O)Nc2ccc(C#N)cc2)C[C@@H]1c1nc2ccccc2[nH]1 [Glasdegib] has bioavailability of 78.5
